# credit: patent US20260284014A1

Test system: ROS
Assay: ROS labeling by cytometry after H2O2
Format: cell-based
Conditions: Homo sapiens, ARPE-19; 1 μM compound then 200 μM H2O2 for 2 h; read-out: C. ROS inhibition 1 μM - ARPE-19 cells
Listed here are compounds together with their documented inhibition at 1 µM.

# Sample Smiles, Target Entity, inhibition at 1 µM
measured = [
    ("Nc1nc(Nc2ccccc2)nn1CCc1ccccc1", "ROS", "< 50%"),
    ("Nc1nc(Nc2ccccc2)nn1Cc1cc(F)cc(F)c1", "ROS", "≥ 50%"),
    ("Nc1nc(Nc2ccccc2)nn1Cc1ccccc1[N+](=O)[O-]", "ROS", "< 50%"),
    ("Nc1nc(Nc2ccccn2)nn1Cc1cccc(Br)c1", "ROS", "< 50%"),
]

-- ask Identify measured inhibition at 1 µM corresponding to Nc1nc(Nc2ccccn2)nn1Cc1cccc(C(F)(F)F)c1
-- reply < 50%

###

Test system: ROS
Assay: ROS labeling by cytometry after H2O2
Format: cell-based
Conditions: Homo sapiens, ARPE-19; 1 μM compound then 200 μM H2O2 for 2 h; read-out: C. ROS inhibition 1 μM - ARPE-19 cells
Property Name: inhibition at 1 µM

Below, 2 molecules whose answers are already recorded.
# Molecule, Property Name, Value Measured
measured = [
    ("Nc1nc(Nc2ccccc2)nn1Cc1ccccc1 [MCK249]", "inhibition at 1 µM", "< 50%"),
    ("Nc1nc(Nc2ccccc2)nn1Cc1c(Cl)cccc1Cl [MCK268]", "inhibition at 1 µM", "< 50%"),
]

-- ask Identify measured inhibition at 1 µM corresponding to Nc1nc(Nc2ccc(Cl)c(Cl)c2)nn1Cc1cccc(Br)c1 [MCK349]
-- reply ≥ 50%

-- ask Identify measured inhibition at 1 µM corresponding to Nc1nc(Nc2ccccc2)n(Cc2cccc(C(F)(F)F)c2)n1 [MCK338]
-- reply ≥ 50%

-- ask Identify measured inhibition at 1 µM corresponding to Nc1nc(Nc2ccccc2)n(Cc2cccc(Br)c2)n1 [MCK339]
-- reply < 50%

###

Tested on: ROS
Experiment: ROS labeling by cytometry after H2O2
Format: cell-based
Settings: Homo sapiens, ARPE-19; 5 μM compound then 200 μM H2O2 for 2 h; read-out: B. ROS inhibition 5 μM - ARPE-19 cells
Property Name: inhibition at 5 µM

Below, 2 compounds whose answers are already recorded.
# Sample Smiles, Value Measured
measured = [
    ("Nc1nc(Nc2ccccc2)n(CCc2ccccc2)n1", "< 50%"),
    ("Nc1nc(Nc2ccccc2)n(Cc2cccc(Br)c2)n1", "≥ 50%"),
]

-- ask Identify measured inhibition at 5 µM corresponding to Nc1nc(Nc2ccccn2)nn1Cc1cccc(Br)c1
-- reply < 50%

-- ask Identify measured inhibition at 5 µM corresponding to CC(C)c1ccc(Cn2nc(N)nc2Nc2ccccc2)cc1
-- reply ≥ 50%

-- ask Identify measured inhibition at 5 µM corresponding to COC(=O)c1ccc(Nc2nc(N)nn2Cc2cccc(Br)c2)cc1
-- reply < 50%

-- ask Identify measured inhibition at 5 µM corresponding to Nc1nc(Nc2ccccn2)nn1Cc1cc(F)cc(F)c1
-- reply < 50%

-- ask Identify measured inhibition at 5 µM corresponding to Nc1nc(Nc2ccccc2)nn1Cc1cc(F)cc(F)c1
-- reply ≥ 50%

###

Listed here are compounds together with their documented inhibition at 1 µM.
Test system: ROS
Assay: ROS labeling by cytometry after H2O2
Type: cell-based
Details: Homo sapiens, ARPE-19; 1 μM compound then 200 μM H2O2 for 2 h; read-out: C. ROS inhibition 1 μM - ARPE-19 cells

# Compound, inhibition at 1 µM
data = [
    ("CC(C)c1ccc(Cn2nc(Nc3ccccc3)nc2N)cc1 [MCK263]", "≥ 50%"),
]

-- ask Identify measured inhibition at 1 µM corresponding to Nc1nc(Nc2ccccc2)n(CCc2ccccc2)n1 [MCK300]
-- reply < 50%

-- ask Identify measured inhibition at 1 µM corresponding to Nc1nc(Nc2ccccc2)n(Cc2c(F)cccc2F)n1 [MCK257]
-- reply ≥ 50%

-- ask Identify measured inhibition at 1 µM corresponding to Cc1ccc(Cn2nc(Nc3ccccn3)nc2N)cc1 [MCK279]
-- reply < 50%

-- ask Identify measured inhibition at 1 µM corresponding to Nc1nc(Nc2ccccc2)nn1Cc1ccc(Cl)cc1 [MCK272]
-- reply < 50%

-- ask Identify measured inhibition at 1 µM corresponding to Nc1nc(Nc2ccccn2)nn1Cc1ccccc1 [MCK253]
-- reply < 50%

###

Listed here are compounds together with their documented inhibition at 1 µM.
Test system: ROS
Assay: ROS labeling by cytometry after H2O2
Assay type: cell-based
Conditions: Homo sapiens, ARPE-19; 1 μM compound then 200 μM H2O2 for 2 h; read-out: C. ROS inhibition 1 μM - ARPE-19 cells

# Compound, inhibition at 1 µM
rows = [
    ("Nc1nc(Nc2ccccn2)nn1Cc1c(Cl)cccc1Cl [MCK278]", "< 50%"),
    ("Cc1ccc(Cn2nc(Nc3ccccc3)nc2N)cc1 [MCK271]", "≥ 50%"),
    ("COc1cccc(Cn2nc(N)nc2Nc2ccccc2)c1 [MCK260]", "≥ 50%"),
]

// next entry
-- ask Param request: inhibition at 1 µM | system ROS | item Nc1nc(Nc2ccccn2)nn1Cc1ccc(Cl)cc1 [MCK280]
-- reply < 50%

###

System: ROS
Assay: ROS labeling by cytometry after H2O2
Assay type: cell-based
Conditions: Homo sapiens, ARPE-19; 1 μM compound then 200 μM H2O2 for 2 h; read-out: C. ROS inhibition 1 μM - ARPE-19 cells
Listed here are compounds together with their documented inhibition at 1 µM.

Below, 2 compounds whose answers are already recorded.
# Compound, inhibition at 1 µM
data = [
    ("Cc1ccccc1Cn1nc(Nc2ccccn2)nc1N [MCK269]", "≥ 50%"),
    ("Nc1nc(Nc2ccccc2)nn1Cc1ccc([N+](=O)[O-])cc1 [MCK288]", "≥ 50%"),
]

-- ask Identify measured inhibition at 1 µM corresponding to Nc1nc(Nc2ccccn2)nn1Cc1cc(F)cc(F)c1 [MCK283]
-- reply < 50%

-- ask Identify measured inhibition at 1 µM corresponding to Nc1nc(Nc2ccccn2)nn1Cc1ccccc1[N+](=O)[O-] [MCK289]
-- reply ≥ 50%

-- ask Identify measured inhibition at 1 µM corresponding to COc1cc(Cn2nc(Nc3ccccc3)nc2N)cc(OC)c1OC [MCK298]
-- reply < 50%

-- ask Identify measured inhibition at 1 µM corresponding to Nc1nc(Nc2ccccc2)nn1Cc1cccc([N+](=O)[O-])c1 [MCK275]
-- reply ≥ 50%

###

Test system: ROS
Experiment: ROS labeling by cytometry after H2O2
Assay type: cell-based
Settings: Homo sapiens, ARPE-19; 1 μM compound then 200 μM H2O2 for 2 h; read-out: C. ROS inhibition 1 μM - ARPE-19 cells
Listed here are compounds together with their documented inhibition at 1 µM.

# Sample Smiles, Target Entity, Property Name, Value Measured
measured = [
    ("Nc1nc(Nc2ccccc2)n(Cc2ccccc2)n1", "ROS", "inhibition at 1 µM", "< 50%"),
    ("Nc1nc(Nc2ccc(Br)cc2)n(Cc2cccc(Br)c2)n1", "ROS", "inhibition at 1 µM", "≥ 50%"),
    ("CC(C)c1ccc(Cn2nc(N)nc2Nc2ccccc2)cc1", "ROS", "inhibition at 1 µM", "≥ 50%"),
    ("COc1cccc(Cn2nc(Nc3ccccc3)nc2N)c1", "ROS", "inhibition at 1 µM", "< 50%"),
    ("Cc1ccc(Nc2nc(N)n(Cc3cccc(Br)c3)n2)cc1", "ROS", "inhibition at 1 µM", "≥ 50%"),
]

-- ask Param request: inhibition at 1 µM | system ROS | item Nc1nc(Nc2ccccn2)nn1Cc1ccc([N+](=O)[O-])cc1
-- reply ≥ 50%

-- ask Param request: inhibition at 1 µM | system ROS | item COC(=O)c1ccc(Nc2nc(N)n(Cc3cccc(Br)c3)n2)cc1
-- reply ≥ 50%

-- ask Param request: inhibition at 1 µM | system ROS | item Nc1nc(Nc2ccccn2)nn1Cc1ccc(F)cc1F
-- reply < 50%

-- ask Param request: inhibition at 1 µM | system ROS | item N#Cc1ccc(Cn2nc(Nc3ccccn3)nc2N)cc1
-- reply < 50%

-- ask Param request: inhibition at 1 µM | system ROS | item Nc1nc(Nc2ccc(Cl)cc2)nn1Cc1cccc(Br)c1
-- reply ≥ 50%

###

Tested on: ROS
Test: ROS labeling by cytometry after H2O2
Type: cell-based
Settings: Homo sapiens, ARPE-19; 1 μM compound then 200 μM H2O2 for 2 h; read-out: C. ROS inhibition 1 μM - ARPE-19 cells
Property Name: inhibition at 1 µM

# Compound, inhibition at 1 µM
measured = [
    ("Cc1ccccc1Cn1nc(Nc2ccccc2)nc1N [MCK250]", "≥ 50%"),
]

-- ask Identify measured inhibition at 1 µM corresponding to Nc1nc(Nc2cccnc2)nn1Cc1cccc(Br)c1 [MCK351]
-- reply < 50%

-- ask Identify measured inhibition at 1 µM corresponding to Nc1nc(Nc2ccccc2)nn1CC(=O)c1ccccc1 [MCK299]
-- reply < 50%

-- ask Identify measured inhibition at 1 µM corresponding to Nc1nc(Nc2ccccn2)nn1Cc1cccc([N+](=O)[O-])c1 [MCK292]
-- reply < 50%

-- ask Identify measured inhibition at 1 µM corresponding to Nc1nc(Nc2ccccc2)nn1Cc1cccc(C(F)(F)F)c1 [MCK273]
-- reply ≥ 50%
